test_name: Metabolic stability in mouse liver microsomes assessed as metabolism rate
Type: ADME, microsome
Please respond with 1 (yes) when measured Drug metabolism is strictly beneath 0.09 nmol/min/mg, and with 0 (no) in all other cases.

Look over these answered cases.
{"molecule": "O=C1c2c(F)cc(C3CC3)cc2OCCN1c1cccc(-c2ccnc3[nH]c(C4=CCN(C5COC5)CC4)cc23)c1CO", "label": "1 (yes)"}
{"molecule": "CN(C)C(=O)N1CC=C(c2cc3c(-c4cccc(N5CCOc6cc(C7CC7)cc(F)c6C5=O)c4CO)ccnc3[nH]2)CC1", "label": "1 (yes)"}
{"molecule": "CC(C)(O)CN1CC=C(c2cc3c(-c4cccc(N5CCOc6cc(C7CC7)cc(F)c6C5=O)c4CO)ccnc3[nH]2)CC1", "label": "0 (no)"}

Task: # check: Drug metabolism < 0.09 nmol/min/mg for CCN1CCN(Cc2ccc(-c3cc4c(-c5cccc(N6CCOc7cc(C8CC8)cc(F)c7C6=O)c5CO)ccnc4[nH]3)nc2)CC1
Result: 1 (yes)

Task: # check: Drug metabolism < 0.09 nmol/min/mg for CN1CCN(Cc2ccc(-c3cc4c(-c5cccc(N6CCOc7cc(C8CC8)cc(F)c7C6=O)c5CO)ccnc4[nH]3)nc2)CC1
Result: 1 (yes)

Task: # check: Drug metabolism < 0.09 nmol/min/mg for O=C1c2c(F)cc(C3CC3)cc2OCCN1c1cccc(-c2ccnc3[nH]c(-c4cnn(C5CCN(C6COC6)CC5)c4)cc23)c1CO
Result: 0 (no)

Task: # check: Drug metabolism < 0.09 nmol/min/mg for N#CCC(=O)N1CC=C(c2cc3c(-c4cccc(N5CCOc6cc(C7CC7)cc(F)c6C5=O)c4CO)ccnc3[nH]2)CC1
Result: 1 (yes)

Task: # check: Drug metabolism < 0.09 nmol/min/mg for CC1(O)CN(C(=O)N2CC=C(c3cc4c(-c5cccc(N6CCOc7cc(C8CC8)cc(F)c7C6=O)c5CO)ccnc4[nH]3)CC2)C1
Result: 1 (yes)

---

target_entity: Tyrosine-protein kinase JAK2 (Homo sapiens)
Sequence (O60674 whole entry): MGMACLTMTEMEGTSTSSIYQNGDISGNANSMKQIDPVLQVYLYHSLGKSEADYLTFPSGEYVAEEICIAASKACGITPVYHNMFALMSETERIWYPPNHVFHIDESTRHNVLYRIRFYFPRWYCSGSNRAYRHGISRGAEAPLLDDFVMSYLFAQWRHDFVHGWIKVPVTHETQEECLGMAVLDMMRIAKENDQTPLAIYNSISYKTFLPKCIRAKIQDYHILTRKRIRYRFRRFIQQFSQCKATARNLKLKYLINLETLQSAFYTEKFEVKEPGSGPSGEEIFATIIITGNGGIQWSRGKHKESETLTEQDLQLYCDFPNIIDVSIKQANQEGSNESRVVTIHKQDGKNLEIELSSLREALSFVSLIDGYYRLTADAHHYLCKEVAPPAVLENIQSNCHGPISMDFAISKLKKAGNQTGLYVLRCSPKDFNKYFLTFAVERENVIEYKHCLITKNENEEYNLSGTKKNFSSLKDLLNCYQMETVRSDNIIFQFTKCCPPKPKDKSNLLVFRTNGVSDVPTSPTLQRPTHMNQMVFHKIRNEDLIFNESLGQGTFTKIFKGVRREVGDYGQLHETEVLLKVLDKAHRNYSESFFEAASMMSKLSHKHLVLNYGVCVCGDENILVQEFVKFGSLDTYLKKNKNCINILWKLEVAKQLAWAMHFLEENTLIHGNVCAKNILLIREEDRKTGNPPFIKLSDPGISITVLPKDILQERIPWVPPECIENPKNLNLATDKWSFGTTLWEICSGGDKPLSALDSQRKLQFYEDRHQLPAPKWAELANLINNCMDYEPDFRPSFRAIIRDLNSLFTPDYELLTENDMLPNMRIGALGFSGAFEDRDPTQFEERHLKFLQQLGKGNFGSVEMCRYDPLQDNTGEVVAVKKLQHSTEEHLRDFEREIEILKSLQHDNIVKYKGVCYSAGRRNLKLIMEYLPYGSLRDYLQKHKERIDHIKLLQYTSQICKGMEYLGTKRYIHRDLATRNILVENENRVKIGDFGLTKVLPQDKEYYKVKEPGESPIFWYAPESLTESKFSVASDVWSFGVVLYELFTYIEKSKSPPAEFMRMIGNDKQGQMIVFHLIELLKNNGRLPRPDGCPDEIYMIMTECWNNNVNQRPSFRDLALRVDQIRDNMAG
assay_readout: IC50

Task: # input compound: CCN1CCN(Cc2ccc(-c3cc4c(-c5cccc(N6CCOc7cc(C8CC8)cc(F)c7C6=O)c5CO)ccnc4[nH]3)nc2)CC1 ; wanted: its IC50
Result: > 10 µM

---

target_entity: Tyrosine-protein kinase BTK (Homo sapiens)
Sequence (Q06187 whole entry): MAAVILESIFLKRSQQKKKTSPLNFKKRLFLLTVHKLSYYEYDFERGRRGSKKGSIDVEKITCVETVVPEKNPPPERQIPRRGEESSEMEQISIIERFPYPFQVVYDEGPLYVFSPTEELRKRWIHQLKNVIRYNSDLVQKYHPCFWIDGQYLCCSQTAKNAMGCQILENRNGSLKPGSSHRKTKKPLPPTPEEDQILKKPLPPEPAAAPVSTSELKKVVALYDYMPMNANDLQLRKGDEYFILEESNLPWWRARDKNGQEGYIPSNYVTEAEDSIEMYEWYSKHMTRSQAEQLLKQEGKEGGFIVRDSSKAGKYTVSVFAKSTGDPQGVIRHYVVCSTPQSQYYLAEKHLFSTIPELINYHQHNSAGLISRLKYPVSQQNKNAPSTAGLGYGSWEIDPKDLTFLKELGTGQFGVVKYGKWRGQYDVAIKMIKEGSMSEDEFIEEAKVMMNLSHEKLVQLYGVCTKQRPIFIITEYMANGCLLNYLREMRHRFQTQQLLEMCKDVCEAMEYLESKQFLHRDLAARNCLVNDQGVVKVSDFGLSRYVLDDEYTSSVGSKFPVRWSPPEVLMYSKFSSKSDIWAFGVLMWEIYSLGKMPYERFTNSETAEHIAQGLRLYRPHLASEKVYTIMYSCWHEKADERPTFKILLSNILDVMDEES
test_name: Inhibition of recombinant human full length BTK preincubated for 10 mins followed by Tk-biotin peptide substrate addition after 90 mins by TR-FRET assay
assay_readout: IC50 (nM)
# value in nM; strip the unit string

As a guide, the following entries are already answered.
{"molecule": "O=C1c2c(F)cc(C3CC3)cc2OCCN1c1cccc(-c2ccnc3[nH]c(C4=CCN(C5COC5)CC4)cc23)c1CO", "unit_text": "nM", "IC50": 3.1}
{"molecule": "CN1CCC(Oc2ccc(-c3cc4c(-c5cccc(N6CCOc7cc(C8CC8)ccc7C6=O)c5CO)ncnc4[nH]3)cc2)CC1", "unit_text": "nM", "IC50": 2.6}
{"molecule": "CS(=O)(=O)N1CC=C(c2cc3c(-c4cccc(N5CCOc6cc(C7CC7)cc(F)c6C5=O)c4CO)ccnc3[nH]2)CC1", "unit_text": "nM", "IC50": 5.5}
{"molecule": "Cc1c(-c2ncnc3[nH]c(-c4ccc(CN5CCN(C)CC5)cc4)cc23)cccc1N1CCOc2cc(C3CC3)ccc2C1=O", "unit_text": "nM", "IC50": 21}

Let's switch to this compound now.
Task: # input compound: CC1(O)CCN(Cc2ccc(-c3cc4c(-c5cccc(N6CCOc7cc(C8CC8)ccc7C6=O)c5CO)ncnc4[nH]3)cc2)CC1 ; wanted: its IC50
Result: 6.8
